B1: tRNA (parent)
chain: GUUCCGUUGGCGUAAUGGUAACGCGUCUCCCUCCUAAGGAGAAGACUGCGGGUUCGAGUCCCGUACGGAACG

Variants of: B1
Experiment: yeast fitness relative to wild type (ratio to wild type); higher = fitter; tRNA-Arg(CCU), competitive growth, 37 C, YPD
Variants at the floor of the assay were thinned out.
Listed here are variants together with their documented yeast fitness.
// no unit string in output, number only

Answered examples (4):
VARIANT IDENTIFIER	MEASURED VALUE
U13G G44A A57U	0.617
C11A U32A C33U	0.548
A43U G67A	0.79
G12A G44C A65G	0.649

Task: Could you share which yeast fitness value was measured for G12C U13A G38A ?
Output: 0.576

Task: Data request, read-out yeast fitness, for C22G C29U
Output: 0.838

Task: Please report the recorded yeast fitness for U35C A65C .
Output: 0.807

Task: Recorded yeast fitness of U8C A15U C22U A40C G48C U54C C62U , please.
Output: 0.557

Task: Dear colleague, I am looking for the recorded yeast fitness of the following variant: C5A C11G G41C G68U
Output: 0.524
